Tested on: Spodoptera litura
PROTOCOL_TEXT: Drug uptake in Spodoptera litura assessed as recovered drug level 0.2 ug/insect after 1 hr
Assay type: ADME, organism-based
CONDITION_DESCRIPTION: in vivo
REPORTED_METRIC: Drug recovery (%)
Give bare numbers, in %.

Please look at the items below and tell me Drug recovery for each one, in order.
1. COP(=S)(OC)Oc1ccc([N+](=O)[O-])c(C)c1
2. COP(=O)(OC)Oc1ccc(C#N)cc1

**A:**
1. 94.8
2. 96.7

Please look at the items below and tell me Drug recovery for each one, in order.
1. CCOP(=S)(OCC)Oc1ccc([N+](=O)[O-])cc1
2. COP(=S)(OC)Oc1ccc(C#N)cc1

**A:**
1: 95.6; 2: 76.6

---

Test system: Spodoptera litura
PROTOCOL_TEXT: Drug uptake in Spodoptera litura assessed as penetrated drug level 0.2 ug/insect after 1 hr
Type: ADME, organism-based
CONDITION_DESCRIPTION: in vivo
Give Drug uptake for every item shown.
Answers are plain numbers, in %.

[
  {
    "SMILES_NOTATION": "COP(=S)(OC)Oc1ccc([N+](=O)[O-])c(C)c1",
    "U": "%",
    "Drug uptake": 51.2
  }
]

Please look at the items below and tell me Drug uptake for each one, in order.
1. CCOP(=S)(OCC)Oc1ccc([N+](=O)[O-])cc1
2. COP(=O)(OC)Oc1ccc(C#N)cc1
3. COP(=S)(OC)Oc1ccc(C#N)cc1

**A:**
35
65.5
39.2

---

PROTOCOL_TEXT: Octanol-water partition coefficient, log P of the compound by shake-flask method
Assay type: physicochemical
Give logP for every item shown.
Answers are plain numbers.

[
  {
    "COMPOUND": "CC(COc1ccc(Oc2ccccc2)cc1)Oc1ccccn1 (stereo unspecified) [PYRIPROXYFEN]",
    "logP": 5.31
  },
  {
    "COMPOUND": "CC(C)=C[C@@H]1[C@@H](C(=O)OCN2C(=O)C3=C(CCCC3)C2=O)C1(C)C [(1R)-TRANS-TETRAMETHRIN]",
    "logP": 4.73
  },
  {
    "COMPOUND": "COP(=O)(OC)Oc1ccc(C#N)cc1 [CYANOPHOS-OXON]",
    "logP": 0.84
  }
]

Please look at the items below and tell me logP for each one, in order.
1. COP(=S)(OC)Oc1ccc(C#N)cc1 [CYANOPHOS]
2. CCOc1ccc(NC(=O)OC(C)C)cc1OCC [DIETHENOFENCARB]
3. CC1(C)C(C(=O)OC(C#N)c2cccc(Oc3ccccc3)c2)C1(C)C (stereo unspecified) [FENPROPATHRIN]

**A:**
1. 2.65
2. 3.02
3. 6

---

Give Surface residue for every item shown.
Test system: Spodoptera litura
PROTOCOL_TEXT: Drug uptake in Spodoptera litura assessed as surface residue level 0.2 ug/insect after 1 hr
Assay type: ADME, organism-based
CONDITION_DESCRIPTION: in vivo
Could you give the number and then its unit, please?

Please look at the items below and tell me Surface residue for each one, in order.
1. COP(=O)(OC)Oc1ccc(C#N)cc1
2. CCOP(=S)(OCC)Oc1ccc([N+](=O)[O-])cc1
3. COP(=S)(OC)Oc1ccc(C#N)cc1

**A:**
["31.2%", "60.6%", "37.4%"]

**Q:** API: value(readout= Surface residue, system= Spodoptera litura, query= "COP(=S)(OC)Oc1ccc([N+](=O)[O-])c(C)c1" )
**A:** 43.6%
